Molecular target: C-RAF (Homo sapiens, UniProt P04049, Y340E/Y341E)
Construct: His tag (implied by nickel chromatography) (cleaved yes); StrepII tag (cleaved yes); MEK1 substrate from E. coli
Sequence (P04049 whole entry Y340E/Y341E): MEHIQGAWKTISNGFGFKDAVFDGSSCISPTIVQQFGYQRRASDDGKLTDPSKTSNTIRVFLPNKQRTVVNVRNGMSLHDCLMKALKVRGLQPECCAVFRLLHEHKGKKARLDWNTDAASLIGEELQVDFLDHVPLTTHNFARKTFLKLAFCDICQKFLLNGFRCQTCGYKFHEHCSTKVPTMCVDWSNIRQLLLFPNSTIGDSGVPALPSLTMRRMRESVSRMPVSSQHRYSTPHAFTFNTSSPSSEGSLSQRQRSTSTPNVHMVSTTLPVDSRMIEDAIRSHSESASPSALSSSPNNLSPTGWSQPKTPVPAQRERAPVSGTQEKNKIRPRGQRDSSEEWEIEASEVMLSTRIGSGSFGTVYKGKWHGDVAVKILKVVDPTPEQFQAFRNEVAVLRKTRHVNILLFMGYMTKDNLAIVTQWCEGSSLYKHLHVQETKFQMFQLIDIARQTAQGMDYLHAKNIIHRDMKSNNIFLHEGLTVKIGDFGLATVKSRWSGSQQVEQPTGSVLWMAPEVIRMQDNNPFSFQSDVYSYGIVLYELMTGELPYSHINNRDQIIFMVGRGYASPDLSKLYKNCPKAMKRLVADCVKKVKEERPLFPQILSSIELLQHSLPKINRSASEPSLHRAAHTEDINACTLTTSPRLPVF
Sequence (P63104 whole entry partner): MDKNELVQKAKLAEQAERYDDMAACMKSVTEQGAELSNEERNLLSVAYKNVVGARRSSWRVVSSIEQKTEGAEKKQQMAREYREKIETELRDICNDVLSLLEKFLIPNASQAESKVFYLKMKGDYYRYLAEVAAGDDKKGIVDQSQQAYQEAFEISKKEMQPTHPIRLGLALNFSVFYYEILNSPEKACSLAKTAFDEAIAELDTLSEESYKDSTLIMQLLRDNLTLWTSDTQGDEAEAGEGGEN
Assay: In vitro Raf activity determination (Alpha Screen, biotinylated kinase-dead MEK1 substrate), C-Raf
Details: c-Raf approximately 4 nM; ATP 1 μM; pre-incubation 60 minutes; reaction 1 hour at room temperature
Excerpt: CRAF cDNA was subcloned as full length protein, with Y340E and Y341E activating mutations, into a baculovirus expression vector for Sf9 insect cell expression. h14-3-3 zeta cDNA was subcloned into a baculovirus expression vector for SF9 insect cell expression. Sf9 cells co-expressing both proteins were lysed and subjected to immobilized nickel chromatography and eluted with Imidazole. A second column (StrepII binding column) was used and eluted with desthiobiotin. […]
# IC50 per entry
Your reply should be a number followed by the unit it is expressed in.

For orientation, consider the following solved cases.
Cc1ncc(NC(=O)c2cccc(C(F)(F)F)c2)cc1-c1cnc(C2CCOCC2)c(C#N)c1 [Example 128]; 0.202 nM
Cc1ccc(NC(=O)c2cnnc(C(C)(C)C#N)c2)cc1-c1cnc(N2CCOCC2)c(C#N)c1 [Example 206]; 0.199 nM
CCNc1ncc(-c2cc(NC(=O)c3ccnc(C(F)(F)F)c3)ccc2C)cc1C#N [Example 24]; 0.123 nM
Cc1ncc(NC(=O)c2cc(C(C)(F)F)ccn2)cc1-c1cnc(N2CCOCC2)c(C#N)c1 [Example 238]; 0.333 nM

Query block: Given the compound Cc1ccc(NC(=O)c2ccnc(C(F)(F)F)c2)cc1-c1cnc(N2CCNCC2)c(C#N)c1 [Example 153] , what is its reported IC50?
Result block: 0.15 nM

Query block: // IC50 lookup, key: Cc1ncc(NC(=O)c2ccnc(C(C)(C)C#N)c2)cc1-c1cnc(NC2CCOC2)c(C#N)c1 (centres unmarked) [Example 77]
Result block: 2.53 nM

Query block: // IC50 lookup, key: CCn1cc(C(=O)Nc2cnc(C)c(-c3cnc(N4CC(C)(O)C4)c(C#N)c3)c2)cc(C(F)(F)F)c1=O [Example 191]
Result block: 5.21 nM

Query block: Requested field: IC50. Item: Cc1ncc(NC(=O)c2cccc(C(F)(F)F)c2)cc1-c1cnc(OCCO)c(C#N)c1 [Example 99]
Result block: 0.712 nM

====

Biological target: b-Raf (V600E) (Homo sapiens, UniProt P15056, V600E)
Sequence (P15056 whole entry V600E): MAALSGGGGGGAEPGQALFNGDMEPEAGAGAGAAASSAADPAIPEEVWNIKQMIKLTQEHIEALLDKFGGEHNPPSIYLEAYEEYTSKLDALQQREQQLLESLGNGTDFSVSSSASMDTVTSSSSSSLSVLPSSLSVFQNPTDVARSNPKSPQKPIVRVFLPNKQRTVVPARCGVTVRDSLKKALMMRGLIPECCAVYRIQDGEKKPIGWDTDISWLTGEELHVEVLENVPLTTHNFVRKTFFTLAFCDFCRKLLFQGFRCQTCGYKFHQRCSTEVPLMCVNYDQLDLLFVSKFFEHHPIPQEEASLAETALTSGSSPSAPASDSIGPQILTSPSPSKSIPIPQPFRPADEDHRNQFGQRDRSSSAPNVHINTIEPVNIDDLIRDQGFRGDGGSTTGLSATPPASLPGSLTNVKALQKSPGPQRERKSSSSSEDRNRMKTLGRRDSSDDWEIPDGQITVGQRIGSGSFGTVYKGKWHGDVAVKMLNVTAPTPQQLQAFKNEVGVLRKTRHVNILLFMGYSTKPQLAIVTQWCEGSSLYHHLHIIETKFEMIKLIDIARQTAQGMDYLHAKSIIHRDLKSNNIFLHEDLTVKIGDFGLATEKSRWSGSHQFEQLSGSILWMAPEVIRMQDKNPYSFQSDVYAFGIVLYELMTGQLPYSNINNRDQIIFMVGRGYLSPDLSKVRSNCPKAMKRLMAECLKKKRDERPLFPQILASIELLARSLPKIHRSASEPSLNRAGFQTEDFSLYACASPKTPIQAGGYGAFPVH
Assay: In vitro Raf activity determination (Alpha Screen, biotinylated kinase-dead MEK1 substrate), B-Raf
Details: b-Raf (V600E) approximately 4 pM; ATP 10 μM; pre-incubation 60 minutes; reaction 3 hours at room temperature
recorded metric: pIC50
Worth noting: pIC50 values are minus log10 of concentrations stated in mol/L.

CCNc1ncc(-c2cc(NC(=O)c3cccc(C(F)(F)F)c3)ccc2C)cc1C#N; 8.83
Cc1nn(C)cc1C(=O)Nc1cnc(C)c(-c2cnc(N(C)C)c(C#N)c2)c1; 5.71
Cc1ncc(NC(=O)c2cccc(C(F)(F)F)c2)cc1-c1cnc(S(C)(=O)=O)c(C#N)c1; 7.76
Cc1ncc(NC(=O)c2ccnc(C(C)(C)C#N)c2)cc1-c1cnc(-c2ccncc2)c(C#N)c1; 8.04

Let us move to another entry and its pIC50.
Query block: pIC50 for Cc1ncc(NC(=O)c2ccnc(C(F)(F)F)c2)cc1-c1cnc(S(C)(=O)=O)c(C#N)c1 ?
Result block: 8.23

====

Molecular target: C-RAF (Homo sapiens, UniProt P04049, Y340E/Y341E)
Construct: His tag (implied by nickel chromatography) (cleaved yes); StrepII tag (cleaved yes); MEK1 substrate from E. coli
Assay: In vitro Raf activity determination (Alpha Screen, biotinylated kinase-dead MEK1 substrate), C-Raf
Conditions: c-Raf approximately 4 nM; ATP 1 μM; pre-incubation 60 minutes; reaction 1 hour at room temperature
pIC50: −log10 of the molar value.
Is pIC50 at least 9? Then yes (1). If not, no (0).

For orientation, consider the following solved cases.
Cc1ccc(NC(=O)c2ccnc(C(C)(C)C#N)c2)cc1-c1cncc(C#N)c1 [Example 35]; no (0)
Cc1ncc(NC(=O)c2cccc(C(F)F)c2)cc1-c1cnc(NC2CCOCC2)c(C#N)c1 [Example 172]; yes (1)
Cc1ccc(NC(=O)c2cc(C(C)(C)N)cc(C(F)(F)F)c2)cc1-c1cnc(N2CC(C)(O)C2)c(C#N)c1 [Example 248]; no (0)

Query block: // inclusive: pIC50 at least 9? input: COCCNc1ncc(-c2cc(NC(=O)c3ccnc(C4(C#N)CC4)c3)ccc2C)cc1C#N [Example 177]
Result block: yes (1)

Query block: Given Cc1ccc(NC(=O)c2ccnc(C3(C#N)CC3)c2)cc1-c1cnc(N2CC(C)(O)C2)c(C#N)c1 [Example 220] , state whether its pIC50 is at least 9.
Result block: yes (1)

Query block: For this compound, is measured pIC50 9 or higher? CCn1cc(C(=O)Nc2ccc(C)c(-c3cnc(N(C)C)c(C#N)c3)c2)c(C)n1 [Example 251]
Result block: no (0)

Query block: In plain terms: is recorded pIC50 at least 9 for Cc1ccc(NC(=O)c2ccccc2)cc1-c1cncc(C#N)c1 [Example 149] ?
Result block: no (0)

Query block: Given Cc1ccc(NC(=O)c2ccnc(C(F)(F)F)c2)cc1-c1cnc(N2CCOCC2)c(C#N)c1 [Example 62] , state whether its pIC50 is at least 9.
Result block: yes (1)

====

Molecular target: b-Raf (V600E) (Homo sapiens, UniProt P15056, V600E)
Assay: In vitro Raf activity determination (Alpha Screen, biotinylated kinase-dead MEK1 substrate), B-Raf
Settings: b-Raf (V600E) approximately 4 pM; ATP 10 μM; pre-incubation 60 minutes; reaction 3 hours at room temperature
Listing of entries alongside the reported IC50.

Cc1ncc(NC(=O)c2ccnc(C3CC3)c2)cc1-c1cnc(C2CCOCC2)c(C#N)c1 [Example 131]; 4.26 nM
COCCNc1ncc(-c2cc(NC(=O)c3cnnc(C(F)(F)F)c3)cnc2C)cc1C#N [Example 203]; 48.2 nM
Cc1ccc(NC(=O)c2ccnc(C(C)(C)C#N)c2)cc1-c1cnc(N(C)C)c(C#N)c1 [Example 16]; 1.53 nM

Query block: Which IC50 reading was recorded for the compound Cc1ncc(NC(=O)c2ccnc(C(C)(C)C#N)c2)cc1-c1cnc(NC(C)C)c(C#N)c1 [Example 28] ?
Result block: 9.82 nM

====

Biological target: b-Raf (V600E) (Homo sapiens, UniProt P15056, V600E)
Test: In vitro Raf activity determination (Alpha Screen, biotinylated kinase-dead MEK1 substrate), B-Raf
Conditions: b-Raf (V600E) approximately 4 pM; ATP 10 μM; pre-incubation 60 minutes; reaction 3 hours at room temperature
Description: Full length MEK1 with an inactivating K97R ATP binding site mutation is utilized as a RAF substrate. The MEK1 cDNA was subcloned with an N-terminal (his)6 tag into a vector for E. Coli expression. The MEK1 substrate was purified from E. Coli lysate by nickel affinity chromatography followed by anion exchange. The final MEK1 preparation was biotinylated (Pierce EZ-Link Sulfo-NHS-LC-Biotin) and concentrated. […]
IC50 less than 10 nM is 1.0; IC50 greater than or equal to 10 nM is 0.0.

Cc1cc(CC(=O)Nc2ccc(C)c(-c3cnc(N(C)C)c(C#N)c3)c2)on1; 0.0

Query block: Answer whether the compound Cc1ncc(NC(=O)c2ccnc(C(C)(C)O)c2)cc1-c1cnc(N2CC(C)(O)C2)c(C#N)c1 has IC50 strictly less than 10 nM
Result block: 0.0

Query block: Please let me know if Cc1ncc(NC(=O)c2ccnc(C(C)(C)C#N)c2)cc1-c1cnc(NC2CCOC2)c(C#N)c1 (stereo in doubt) [Example 78a] shows IC50 below 10 nM.
Result block: 0.0

Query block: Take the compound Cc1ncc(NC(=O)c2ccnc(C(C)(C)C#N)c2)cc1-c1cnc(Oc2ccccn2)c(C#N)c1 and say whether its IC50 is less than 10 nM.
Result block: 0.0

====

log10 of IC50 by entry:
Target: C-RAF (Homo sapiens, UniProt P04049, Y340E/Y341E)
Construct: His tag (implied by nickel chromatography) (cleaved yes); StrepII tag (cleaved yes); MEK1 substrate from E. coli
Experiment: In vitro Raf activity determination (Alpha Screen, biotinylated kinase-dead MEK1 substrate), C-Raf
Conditions: c-Raf approximately 4 nM; ATP 1 μM; pre-incubation 60 minutes; reaction 1 hour at room temperature
Plainly stated, the numbers are log10 of IC50 given in nM.

Consider the worked cases shown below.
Cc1ncc(NC(=O)c2ccnc(C(C)(C)C#N)c2)cc1-c1cnc(N2CCCC2)c(C#N)c1; 0.32
Cc1ncc(NC(=O)c2ccnc(C(C)(C)C#N)c2)cc1-c1cnc(-c2ccn(C)c(=O)c2)c(C#N)c1; 0.62
Cc1ncc(NC(=O)c2cc(C(C)(C)C#N)ccn2)cc1-c1cnc(N2CCOCC2)c(C#N)c1; -0.42
CCCNc1ncc(-c2cc(NC(=O)c3cccc(C(F)(F)F)c3)ccc2C)cc1C#N; -0.37

Query block: Would you mind telling me what log10 of IC50 value was observed for Cc1ncc(NC(=O)c2ccnc(C(C)(C)C#N)c2)cc1-c1cnc(N2CCS(=O)(=O)CC2)c(C#N)c1 ?
Result block: 0.37

Query block: Fill in the blank: the reported log10 of IC50 of Cc1ccc(NC(=O)c2cnnc(C(C)(C)C#N)c2)cc1-c1cnc(NC2CCOCC2)c(C#N)c1 is ____.
Result block: -0.66

Query block: Name the reported log10 of IC50 value associated with the compound Cc1ncc(NC(=O)c2cc(C(F)(F)F)ccn2)cc1-c1cnc(N2CC(C)(O)C2)c(C#N)c1
Result block: 0.03

Query block: Endpoint output: log10 of IC50 of Cc1ncc(NC(=O)c2cccc(C(F)(F)F)c2)cc1-c1cnc(N2CCOCC2)c(C#N)c1 . Value?
Result block: -0.69

Query block: # log10 of IC50 lookup, item Cc1ccc(NC(=O)c2ccnc(C(C)(C)C#N)c2)cc1-c1cnc(NC(C)C)c(C#N)c1
Result block: -0.33

Query block: Would you mind telling me what log10 of IC50 value was observed for Cc1ccc(NC(=O)c2cccc(S(C)(=O)=O)c2)cc1-c1cnc(N2CCNCC2)c(C#N)c1 ?
Result block: -0.71

Query block: Request the reported log10 of IC50 associated with Cc1ccc(NC(=O)c2ccnc(C(C)(C)F)c2)cc1-c1cnc(N2CCNCC2)c(C#N)c1
Result block: -0.65
